Test system: NCI-H23 lung
Assay: NCI-60 one-dose screen, 48 h (100 = growth as untreated, 0 = no growth, -100 = all killed)
Settings: 10 µM unless noted
About 83,000 compounds went through this panel and 20% of them were active in at least one assay; those are over-represented in the sample as a whole.
OBSERVATION TYPE: growth (%)
Response body: numeric value in %, unit text excluded.

# count of solved cases: 3
>  <SMILES DATA>
Cc1ccc(C(=O)Nc2ccc(CNCCN3CCNCC3)c(C(F)(F)F)c2)cc1C#Cc1cnc2cccnn12

>  <TARGET OR SYSTEM>
NCI-H23 lung

>  <growth, %>
4.87

$$$$
>  <SMILES DATA>
Cn1c2nc3ccccc3c-2cc2ccccc21

>  <TARGET OR SYSTEM>
NCI-H23 lung

>  <growth, %>
44.9

$$$$
>  <SMILES DATA>
COC(=O)CNC(=O)c1cccc(-c2cc(=O)c3c(OC)c(OC)c(OC)cc3o2)c1

>  <TARGET OR SYSTEM>
NCI-H23 lung

>  <growth, %>
98.1

$$$$

In the following, a different compound is considered.
Tell me its growth given CCN(CC)c1ccc(/C=N/NC(=O)c2ccc(NS(C)(=O)=O)cc2)cc1 as the entry.
36.5

* * *

Tested on: HS 578T breast
Test: NCI-60 one-dose screen, 48 h
Conditions: 10 µM unless noted
The panel holds about 83,000 compounds, 20% with a hit somewhere; the sample as a whole holds those more often. Active and inactive are the calls of the source. Rule for the calls: active = growth percent below 10; inactive = the rest.
Write down the outcome that applies. Available outcomes: active, inactive

>  <MOLECULE>
O=C(NCCNc1cc(-c2cn(-c3ccccc3)nc2-c2cccc(O)c2)ccn1)Nc1cc(C(F)(F)F)cc(C(F)(F)F)c1

>  <TARGET OR SYSTEM>
HS 578T breast

>  <LABEL CLASS>
inactive

$$$$
>  <MOLECULE>
C#Cc1cc(OC)c(C(=O)Nc2ccc(F)cc2C(=O)Nc2cccc(S(=O)(=O)C(F)(F)F)c2)cn1

>  <TARGET OR SYSTEM>
HS 578T breast

>  <LABEL CLASS>
active

$$$$
>  <MOLECULE>
CC[C@H](CC[C@@H](C)[C@H]1CC[C@H]2[C@@H]3CC(=O)C4=CC(=O)/C(=C/c5ccc([N+](=O)[O-])cc5)C[C@]4(C)[C@H]3CC[C@]12C)C(C)C

>  <TARGET OR SYSTEM>
HS 578T breast

>  <LABEL CLASS>
inactive

$$$$

Which outcome was assigned to O=S1SC(c2ccccc2)=NN1c1cc(F)cc(F)c1 (configuration not stated) in this test?
inactive

# fetch the recorded call for CCOC(=O)c1cccc(NC2=C(Cl)C(=O)c3nc(C)ccc3C2=O)c1 here
inactive

GET /call?item= CN1CCN(c2ccc(Nc3nc(NCCNS(=O)(=O)c4ccccc4)c4sccc4n3)cc2)CC1 returns the recorded outcome of this test.
inactive

Lab log entry: CC[C@]12CC(C(=O)OC)=C3Nc4ccccc4[C@@]34CCN(C14)[C@@H]1c3cc4c(cc3O[C@@H]1[C@H]2O)NC1=C(C(=O)OC)C[C@@]2(CC)C3N(CC[C@@]143)C[C@H]1O[C@H]12 (some centres not stated) — outcome as called in the assay?
inactive

* * *

growth values, listed per item
Tested on: NCI/ADR-RES ovarian
Assay: NCI-60 one-dose screen, 48 h (100 = growth as untreated, 0 = no growth, -100 = all killed)
Settings: 10 µM unless noted
Method: Growth inhibition of the NCI/ADR-RES human […] tumor cell line is measured as a screen for anti-cancer activity. Cells are grown in 96 well plates and exposed to the test compound for 48 hours. Compounds are tested at a single concentration, which is 10^-5 M for most compounds. The reported endpoint is percent growth (GI% or GIPRCNT), where numbers from 0 - 100% represent growth inhibition, and numbers from -100% - 0 represent cell death. For example, a value of 40 represents 60% growth inhibition. […]
Compounds without any hit were thinned out: in the full panel of roughly 83,000, 20% have a hit.
// note: answer is a bare numeric in %

Worked cases, growth given:
>  <SMILES DATA>
CC1=C(SCC(=O)OCCCCCC(C)C)C(=O)c2ccccc2C1=O

>  <growth, %>
100

$$$$
>  <SMILES DATA>
CCCCCc1ccc(S(=O)(=O)Nc2cc(-c3csc(N)n3)ccc2OC)cc1

>  <growth, %>
88

$$$$
>  <SMILES DATA>
CCOC(=O)C(=O)Nc1ccc2c(ccn2C(=O)c2cccc(F)c2)c1

>  <growth, %>
100

$$$$
>  <SMILES DATA>
NCCNC(=O)c1cccc(COc2ccccc2NC(=O)c2cc(Br)c(Br)[nH]2)c1

>  <growth, %>
96.7

$$$$
>  <SMILES DATA>
COc1ccc(-c2c(C(N)=O)c(N)n(Cc3nc4ccccc4[nH]3)c(=O)c2C#N)c(OC)c1

>  <growth, %>
102

$$$$

Answer with the recorded growth for the molecule listed here: CS(=O)(=O)c1ccc(/C(=N/N=C(N)N)c2ccc(Cl)cc2)cc1
102

Give the value of growth reported for the following: O=C(CCCCCCNC(=O)C(O)(O)C(F)(F)F)Nc1ccc(Br)cc1
16.9

* * *

System: HCC-2998 colon
Assay: NCI-60 one-dose screen, 48 h (100 = growth as untreated, 0 = no growth, -100 = all killed)
Conditions: 10 µM unless noted
The panel holds about 83,000 compounds, 20% with a hit somewhere; the sample as a whole holds those more often.
Rule: growth of 70% or more gives TRUE; anything lower gives FALSE.

Look over these answered cases.
>  <MOLECULE>
Brc1cc(-c2cc(-c3ccc4c(c3)OC=CO4)[nH]n2)cs1

>  <LABEL CLASS>
TRUE

$$$$
>  <MOLECULE>
O=S(=O)(NCCCNc1nccc(-c2[nH]c(-c3ccccc3)nc2-c2ccc(F)c(O)c2)n1)c1cccc(F)c1

>  <LABEL CLASS>
TRUE

$$$$
>  <MOLECULE>
CNCCN(C)c1ccc(Nc2cc(NC3CC3)n3ncc(C#N)c3n2)cc1NC(C)=O

>  <LABEL CLASS>
FALSE

$$$$

Could you now look at the following molecule, please?
Threshold query (growth >= 70%) on COc1ccc(NC(=O)CCCCCCNC(=O)C(O)(O)C(F)(F)F)cc1
FALSE

* * *

System: SK-MEL-28 melanoma
Assay: NCI-60 one-dose screen, 48 h (100 = growth as untreated, 0 = no growth, -100 = all killed)
Conditions: 10 µM unless noted
This is part of a sample that, as a whole, favours compounds with a hit. Of some 83,000 tested, about 20% had one in any assay.
OBSERVATION TYPE: growth (%)
Your answer is read as %, so omit the unit and give the number.

Illustrative cases are given below, each with its answer.
>  <COMPOUND>
CCCCCN1C(=O)/C(=c2\sc3n(c2=O)C2C(NN=3)N(CC)C(=O)N2CC)c2cccc(C)c21 (centres undefined)

>  <MEASURE UNIT>
%

>  <growth>
62.4

$$$$
>  <COMPOUND>
Cc1[nH]c(C(=O)Nc2ccc(C(=O)NCC3CCNCC3)cc2OC(C)C)c(Cl)c1Cl

>  <MEASURE UNIT>
%

>  <growth>
83.9

$$$$
>  <COMPOUND>
COC(=O)[C@@H](Cc1c[nH]c2ccccc12)NC(=O)CCCCOc1cc(O)c2c(=O)cc(-c3ccccc3)oc2c1

>  <MEASURE UNIT>
%

>  <growth>
101

$$$$

// next item, growth requested
State its growth for this compound: CCOC(=O)c1c(NC(=O)c2ccc(C(F)(F)F)cc2)sc2c3c(ccc12)OCN(C)C3
95.8

* * *

# growth per entry
Test system: SR leukemia
Experiment: NCI-60 one-dose screen, 48 h (100 = growth as untreated, 0 = no growth, -100 = all killed)
Settings: 10 µM unless noted
This is part of a sample that, as a whole, favours compounds with a hit. Of some 83,000 tested, about 20% had one in any assay.
// return numeric value only (unit: %, not printed)

Guide cases for growth, answers given:
>  <COMPOUND>
CC(C)=CCC[C@](C)(O)[C@H]1CC[C@]2(C)[C@@H]1CC[C@@H]1[C@@]3(C)CC[C@H](N)C(C)(C)[C@@H]3CC[C@]12C

>  <MEASURE UNIT>
%

>  <growth>
-24.4

$$$$
>  <COMPOUND>
Brc1cc(-c2cc(-c3ccc4c(c3)OC=CO4)[nH]n2)cs1

>  <MEASURE UNIT>
%

>  <growth>
60.9

$$$$
>  <COMPOUND>
C/C(=C(/C)C1CC1CCNC1CCC(NC(=O)OC(C)(C)C)CC1)c1ccccc1 (stereo not given)

>  <MEASURE UNIT>
%

>  <growth>
-25.5

$$$$
>  <COMPOUND>
CCCc1cc2cc(-n3nc(CC)c4c3CC(C)(C)CC4=O)cc(NC3CCC(O)CC3)c2c(=O)[nH]1 (stereo not given)

>  <MEASURE UNIT>
%

>  <growth>
0.947

$$$$

Quote growth reported for COC(=O)c1cccc(NC2=C(Cl)C(=O)C(C)=C(C)C2=O)c1 please.
30
